target: Microphthalmia-associated transcription factor (Homo sapiens, UniProt O75030); assay: reducers of TRPM1 reporter luminescence, concentration series – cell-based, SK-MEL-5, cherry-picked, set 3, MITF inhibitor project, dose response (AID 493073); type: functional;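 note: SK-MEL-5 melanoma cells with luciferase driven by the MITF target TRPM1 promoter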
Sequence (O75030 whole entry): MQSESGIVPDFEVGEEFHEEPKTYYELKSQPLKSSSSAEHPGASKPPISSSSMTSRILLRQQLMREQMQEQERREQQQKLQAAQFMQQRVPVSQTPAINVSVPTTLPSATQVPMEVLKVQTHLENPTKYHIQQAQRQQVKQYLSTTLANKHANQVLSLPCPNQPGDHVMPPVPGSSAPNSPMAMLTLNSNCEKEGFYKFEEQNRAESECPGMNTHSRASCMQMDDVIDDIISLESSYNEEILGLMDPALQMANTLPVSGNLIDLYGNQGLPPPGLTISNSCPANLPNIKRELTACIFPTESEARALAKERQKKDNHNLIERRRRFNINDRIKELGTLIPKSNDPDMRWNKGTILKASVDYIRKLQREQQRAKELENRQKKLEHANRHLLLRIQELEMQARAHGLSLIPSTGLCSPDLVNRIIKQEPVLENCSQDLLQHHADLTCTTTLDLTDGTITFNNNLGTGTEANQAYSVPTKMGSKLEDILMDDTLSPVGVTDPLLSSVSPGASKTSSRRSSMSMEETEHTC
Calls of active or inactive are those of the source. The rule behind the calls is not given here.
attribute.measured: AC50

Example cases with answers are listed next.
O=C(O)c1ccc(Nc2nc3c(s2)CCCC3)cc1    6.49 µM (active)
Cc1cc(C(=O)CN2C(=O)c3ccccc3S2(=O)=O)c(C)n1-c1ccccc1    3.45 µM (active)
OCC1OC(n2cnc3c(NCc4ccco4)ncnc32)C(O)C1O (stereo unspecified)    3.88 µM (active)
CCOc1ccc(C(=O)Nc2cccc(C(=O)O)c2C)cc1Cl    8.56 µM (active)
O=C(Nc1ccc(-c2nc3ncccc3o2)cc1)c1ccc([N+](=O)[O-])o1    3.63 µM (active)

// below: AC50 requested for another compound
AC50 measured on `CCOc1cc(NC(=O)CCl)c(OCC)cc1NC(=O)CCl` = 5.51 µM (active)

Taken from ChEMBL document CHEMBL1201862.
